# System Tested: mouse TRPM3a2 (mTRPM3) ion channel (Mus musculus, UniProt J9SQF3)
# Construct: expressed in transfected cells; host or cells: flip-in HEK293
# Sequence (J9SQF3 1-1709 isoform J9SQF3-12): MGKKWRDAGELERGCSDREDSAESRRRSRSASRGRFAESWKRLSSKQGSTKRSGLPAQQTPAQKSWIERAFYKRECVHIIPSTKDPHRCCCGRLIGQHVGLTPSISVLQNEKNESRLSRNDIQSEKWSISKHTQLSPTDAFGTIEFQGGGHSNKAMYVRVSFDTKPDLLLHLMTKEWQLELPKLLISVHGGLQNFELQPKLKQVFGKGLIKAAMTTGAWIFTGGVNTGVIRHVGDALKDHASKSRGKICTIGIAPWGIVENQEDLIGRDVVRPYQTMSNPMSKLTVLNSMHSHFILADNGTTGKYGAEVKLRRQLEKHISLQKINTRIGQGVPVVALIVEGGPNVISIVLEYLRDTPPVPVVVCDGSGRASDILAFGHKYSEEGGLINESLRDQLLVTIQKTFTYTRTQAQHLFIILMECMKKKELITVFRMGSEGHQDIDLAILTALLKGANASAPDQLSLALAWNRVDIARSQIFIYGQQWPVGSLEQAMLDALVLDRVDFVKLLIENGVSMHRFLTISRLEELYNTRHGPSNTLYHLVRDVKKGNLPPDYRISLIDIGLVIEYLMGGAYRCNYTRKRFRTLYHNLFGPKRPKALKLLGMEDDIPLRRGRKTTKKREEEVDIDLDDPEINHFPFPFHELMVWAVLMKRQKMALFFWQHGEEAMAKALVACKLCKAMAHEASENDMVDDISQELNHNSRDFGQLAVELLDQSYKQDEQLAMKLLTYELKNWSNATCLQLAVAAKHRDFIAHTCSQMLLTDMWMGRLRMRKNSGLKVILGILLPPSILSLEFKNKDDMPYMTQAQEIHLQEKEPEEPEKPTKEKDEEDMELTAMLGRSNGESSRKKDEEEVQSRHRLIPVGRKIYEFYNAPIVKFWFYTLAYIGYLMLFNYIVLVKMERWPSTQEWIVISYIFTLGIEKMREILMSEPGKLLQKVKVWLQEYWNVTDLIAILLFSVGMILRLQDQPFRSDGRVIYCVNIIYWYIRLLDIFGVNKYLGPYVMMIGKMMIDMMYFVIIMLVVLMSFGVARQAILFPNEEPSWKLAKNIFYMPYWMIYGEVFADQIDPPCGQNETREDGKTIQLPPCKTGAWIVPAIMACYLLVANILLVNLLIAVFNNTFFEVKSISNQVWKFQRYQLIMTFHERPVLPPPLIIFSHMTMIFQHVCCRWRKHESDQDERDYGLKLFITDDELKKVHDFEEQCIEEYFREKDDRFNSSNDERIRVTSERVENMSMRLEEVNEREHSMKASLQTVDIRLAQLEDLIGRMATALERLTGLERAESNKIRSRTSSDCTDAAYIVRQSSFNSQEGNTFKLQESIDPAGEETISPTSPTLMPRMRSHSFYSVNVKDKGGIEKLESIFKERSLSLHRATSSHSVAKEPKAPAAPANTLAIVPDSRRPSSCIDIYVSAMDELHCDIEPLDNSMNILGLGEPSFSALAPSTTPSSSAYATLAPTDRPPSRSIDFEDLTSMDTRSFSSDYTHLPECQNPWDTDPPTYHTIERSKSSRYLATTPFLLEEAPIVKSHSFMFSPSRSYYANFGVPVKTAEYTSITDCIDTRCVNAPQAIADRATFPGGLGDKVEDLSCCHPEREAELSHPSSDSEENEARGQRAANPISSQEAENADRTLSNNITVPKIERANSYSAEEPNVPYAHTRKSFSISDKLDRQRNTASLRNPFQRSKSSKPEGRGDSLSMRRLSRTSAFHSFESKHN
# Assay Method Text: TRPM3 ion channel driven Ca2+ uptake, Fluo-4 AM assay (PS-stimulated, overexpressing flip-in HEK293 cells)
# Type: cell-based
# Reported Conditions: PS (50 μM) stimulated, cpd 001-199
pIC50: −log10 of the molar value.
Measured Metric: pIC50

Please review the entries below; each comes with its answer.
> print(dat)
                                   compound  measured.result
1  Cc1ncsc1COc1ccc2oc(C)c(C(=O)NC3CCN(C(=O)OC(C)(C)C)CC3(F)F)c2c1 (stereo not shown) [cpd 090]     4.70 to 6.00
2  Cc1oc2ccc(OCc3cccnc3C(F)(F)F)cc2c1C(=O)NC1CN(C)CC(F)(F)C1 (single isomer, unassigned) [141 - En 1]           ≥ 6.00

For COc1ncccc1COc1ccc2oc(C)c(C(=O)NC3CCNC3=O)c2c1 (stereo not shown) [compound 046] , what is its reported pIC50?
≥ 6.00

Then this compound: Cc1oc2ccc(OCc3cccnc3Cl)cc2c1C(=O)NC1CCN(C(=O)OC(C)(C)C)CC1(F)F (stereo not shown) [cpd 092]
4.70 to 6.00

Then this compound: Cc1ncsc1COc1ccc2oc(C)c(C(=O)O)c2c1 [cpd 102]
4.70 to 6.00

Then this compound: Cc1oc2ccc(OCc3cccs3)cc2c1C(=O)O [cpd 012]
4.70 to 6.00

Then this compound: Cc1oc2ccc(OCc3cccnc3C(F)(F)F)cc2c1C(=O)n1cc(N)cn1 [cpd 181]
4.70 to 6.00

Then this compound: Cc1ncsc1COc1cc(F)c2oc(C)c(C(=O)NC3(CO)CCOCC3)c2c1 [compound 122]
4.70 to 6.00

Then this compound: Cc1oc2ccc(OCc3cccc(C(F)(F)F)n3)cc2c1C(=O)NC1CCNC1=O (stereo not shown) [cpd 065]
4.70 to 6.00

Then this compound: Cc1oc2ccc(OCc3ccoc3)cc2c1C(=O)O [cpd 001]
4.70 to 6.00

Then this compound: Cc1ncsc1COc1cc(C)c2oc(C)c(C(=O)NC3(CO)CCOCC3)c2c1 [compound 186]
4.70 to 6.00

Then this compound: Cc1oc2ccc(OCc3cncs3)cc2c1C(=O)O [cpd 014]
4.70 to 6.00

Then this compound: Cc1cncc(COc2ccc3oc(C)c(C(=O)N[C@H]4CCN(C(=O)OC(C)(C)C)C4)c3c2)c1 [cpd 073]
4.70 to 6.00
